# Test system: Escherichia coli TOP10;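 note: peptides expressed intracellularly from a pBAD plasmid library in pooled LB shake-flask culture, induced with 0.3% L-arabinose, DNA abundance read by NGS, three biological replicates, DESeq2 with apeglm shrinkage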
# assay summary: shrunken log2 fold change of peptide-encoding DNA abundance (4.5 h post-induction vs induction); higher = less antimicrobial activity (less host growth inhibition)
# measurement context: time post-induction: 4.5 h; library: site-saturation at positions 5, 18, 19, 20
Give shrunken log2 fold change for every item shown.
One number for each entry.

Worked examples follow.
INSERT INTO assay_data (sequence_content, readout_number) VALUES
  ('RRIRPRPPRLPRPRPRPLSNPRP', -0.1),
  ('RRIRNRPPRLPRPRPRPRKRPRP', -0.0369),
  ('RRIRPRPPRLPRPRPRPFHYPRP', -1.27),
  ('RRIRTRPPRLPRPRPRPAVRPRP', 0.203),
  ('RRIRPRPPRLPRPRPRPDSKPRP', -0.238);

Please go through the list and note shrunken log2 fold change for each sequence.
1. RRIRERPPRLPRPRPRPMTMPRP
2. RRIRWRPPRLPRPRPRPKKYPRP
3. RRIRYRPPRLPRPRPRPCACPRP
4. RRIRERPPRLPRPRPRPKSLPRP

A.
[-0.136, -0.245, 0.0891, -0.515]

Give measured shrunken log2 fold change for every item shown.
1. RRIRRRPPRLPRPRPRPNCFPRP
2. RRIRARPPRLPRPRPRPKIQPRP
3. RRIRQRPPRLPRPRPRPYSIPRP
4. RRIRKRPPRLPRPRPRPYNFPRP
5. RRIRARPPRLPRPRPRPPCHPRP
6. RRIRERPPRLPRPRPRPKHSPRP

A.
0.176
0.26
0.098
-0.384
0.219
0.111

Value sought for every listed sequence: shrunken log2 fold change.
1. RRIRSRPPRLPRPRPRPICFPRP
2. RRIRHRPPRLPRPRPRPHYLPRP
3. RRIRWRPPRLPRPRPRPLGEPRP
4. RRIRSRPPRLPRPRPRPDQKPRP
5. RRIRERPPRLPRPRPRPRRCPRP
6. RRIRIRPPRLPRPRPRPFMDPRP
7. RRIRSRPPRLPRPRPRPNLSPRP

A.
1. -0.15
2. 0.0305
3. 0.224
4. -0.00231
5. 0.0702
6. -1.07
7. -0.425

Go through the items and report each one's shrunken log2 fold change.
1. RRIRWRPPRLPRPRPRPVLRPRP
2. RRIRCRPPRLPRPRPRPAEYPRP
3. RRIRIRPPRLPRPRPRPTPQPRP
4. RRIRARPPRLPRPRPRPNVAPRP
5. RRIRMRPPRLPRPRPRPWTFPRP
6. RRIRNRPPRLPRPRPRPIVFPRP
7. RRIRCRPPRLPRPRPRPLAYPRP
8. RRIRKRPPRLPRPRPRPLTGPRP

A.
[0.106, -0.335, -0.117, 0.477, 0.055, -0.207, -0.616, -0.0975]

I'm hoping you can list shrunken log2 fold change for every sequence here, please.
1. RRIRRRPPRLPRPRPRPNEDPRP
2. RRIRDRPPRLPRPRPRPFQTPRP

A.
1: 0.352; 2: 0.0255

Source: the supplement of paper PMC9112550
